Reference source for all entries: PubChem BioAssay (EPA / NIEHS)

- study target: human Dopamine Transporter (DAT), SLC6A3 (gene 6531) (UniProt Q01959)
- Sequence (Q01959 whole entry, looked up): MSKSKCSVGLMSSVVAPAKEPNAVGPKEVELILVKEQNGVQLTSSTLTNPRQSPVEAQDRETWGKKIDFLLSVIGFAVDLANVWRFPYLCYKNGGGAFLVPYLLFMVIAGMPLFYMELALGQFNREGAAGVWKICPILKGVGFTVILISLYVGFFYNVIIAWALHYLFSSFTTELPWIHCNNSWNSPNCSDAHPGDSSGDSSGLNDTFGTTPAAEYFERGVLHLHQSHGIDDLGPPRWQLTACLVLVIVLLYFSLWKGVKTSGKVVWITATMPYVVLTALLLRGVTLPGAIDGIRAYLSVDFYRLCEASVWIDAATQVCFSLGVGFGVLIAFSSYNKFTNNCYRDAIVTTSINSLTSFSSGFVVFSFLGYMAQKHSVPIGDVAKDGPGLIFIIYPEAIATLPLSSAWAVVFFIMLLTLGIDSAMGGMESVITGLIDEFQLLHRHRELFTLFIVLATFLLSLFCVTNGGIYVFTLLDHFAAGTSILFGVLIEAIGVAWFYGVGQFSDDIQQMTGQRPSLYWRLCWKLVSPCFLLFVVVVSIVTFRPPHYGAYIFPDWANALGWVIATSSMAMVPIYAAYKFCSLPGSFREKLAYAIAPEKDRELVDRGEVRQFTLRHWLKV
- assay details: NVS_TR_hDAT: NovaScreen (NVS) Transporter Assay for human Dopamine Transporter (DAT) (AID 2283374);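 note: activity means loss of bound radioligand signal relative to DMSO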
Records with an inconclusive call do not appear. Activity calls are given as the source filed them. Rule for the calls: active = hit-call score of the fitted dose curve at least 0.9, where 1 is the maximum; inconclusive = response in the unintended direction; inactive = score below 0.9.
Classes used: true (active), false (inactive)

[[record]]
compound_structure = "Oc1ccc(/C=C/c2cc(O)cc(O)c2)cc1"
study_target = "human Dopamine Transporter (DAT), SLC6A3 (gene 6531) (UniProt Q01959)"
label = "true"

[[record]]
compound_structure = "CCCCCCOC(=O)CCCCC(=O)OCCCCCC"
study_target = "human Dopamine Transporter (DAT), SLC6A3 (gene 6531) (UniProt Q01959)"
label = "false"

[[record]]
compound_structure = "O=C(Oc1ccccc1)c1ccccc1C(=O)Oc1ccccc1"
study_target = "human Dopamine Transporter (DAT), SLC6A3 (gene 6531) (UniProt Q01959)"
label = "true"

[[record]]
compound_structure = "COc1ccc(C(=O)c2ccccc2)c(O)c1"
study_target = "human Dopamine Transporter (DAT), SLC6A3 (gene 6531) (UniProt Q01959)"
label = "true"


* * *

- Read-out: E-selectin (Homo sapiens) (UniProt P16581)
- Sequence (P16581 whole entry, looked up): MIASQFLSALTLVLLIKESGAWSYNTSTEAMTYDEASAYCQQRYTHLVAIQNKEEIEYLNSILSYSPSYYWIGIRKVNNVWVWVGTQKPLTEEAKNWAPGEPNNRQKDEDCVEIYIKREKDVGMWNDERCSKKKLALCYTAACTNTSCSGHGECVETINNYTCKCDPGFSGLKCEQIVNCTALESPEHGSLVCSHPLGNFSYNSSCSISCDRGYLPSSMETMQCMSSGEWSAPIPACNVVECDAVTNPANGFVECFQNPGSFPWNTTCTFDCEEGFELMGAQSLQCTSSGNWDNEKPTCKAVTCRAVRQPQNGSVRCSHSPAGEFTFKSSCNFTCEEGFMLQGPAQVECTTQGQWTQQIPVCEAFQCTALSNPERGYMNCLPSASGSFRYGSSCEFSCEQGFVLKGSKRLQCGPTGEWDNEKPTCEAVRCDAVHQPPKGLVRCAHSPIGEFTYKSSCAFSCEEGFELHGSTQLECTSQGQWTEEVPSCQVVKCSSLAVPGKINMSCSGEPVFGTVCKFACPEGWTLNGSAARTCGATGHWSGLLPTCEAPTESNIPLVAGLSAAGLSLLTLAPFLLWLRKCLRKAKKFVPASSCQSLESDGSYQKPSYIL
- assay details: BSK_SAg_Eselectin: BioMAP Diversity Plus: SAg Assay for Eselectin Biomarker Activity (AID 2283091)
- test settings: primary human HUVEC with PBMC; actives raise or lower the signal
Active and inactive are the calls of the source. How the source made its calls: active means hit-call score of the fitted dose curve at least 0.9, where 1 is the maximum; inactive means score below 0.9.
Classes used: active, inactive

[[record]]
molecule = "CC1(C)CC(O)CC(C)(C)N1[O]"
label = "inactive"

[[record]]
molecule = "O=C1CCCCCCCCCCCN1"
label = "inactive"

[[record]]
molecule = "Oc1ccccc1Cc1ccccc1O"
label = "inactive"

[[record]]
molecule = "C=CC(=O)OCC(C)OCC(C)OCC(C)OC(=O)C=C (centres undefined)"
label = "active"


* * *

- study target: Transcriptional activator Myb (Homo sapiens)
- assay details: ATG_Myb_CIS: Attagene CIS-FACTORIAL HepG2 Assay for human Myeloblastosis (Myb) Proto-Oncogene Transcription Factor (AID 2282986)
- test settings: HepG2 Attagene CIS-FACTORIAL Myb reporter transcription; actives raise or lower the signal
Active and inactive are the calls of the source. The calls were made as follows: active = hit-call score of the fitted dose curve at least 0.9, where 1 is the maximum; inactive = score below 0.9.
Outcome codes: 1 = active, -1 = inactive

[[record]]
molecule = "CCCCCCCCCCCCCc1ccccc1"
label = -1

[[record]]
molecule = "Clc1cc(Cl)c(Cl)c(Cl)c1Cl"
label = -1

[[record]]
molecule = "CCCCCC1=CCCC1=O"
label = -1

[[record]]
molecule = "CC1=C(O)C(=O)C(C)O1 (stereo not given)"
label = -1

[[record]]
molecule = "CC(=O)CCC=C(C)C"
label = -1

[[record]]
molecule = "CCCCC(CC)COC(=O)/C=C/c1ccc(OC)cc1 (stereo not given)"
label = -1

[[record]]
molecule = "CC(C)c1ccc(O)c(C(C)C)c1"
label = -1

[[record]]
molecule = "CCCCCC[C@@H](O)C/C=C\\CCCCCCCC(=O)OCC(O)CO (stereo not given in full)"
label = 1

[[record]]
molecule = "CC(=O)OC/C=C(/C)CCC=C(C)C"
label = -1

[[record]]
molecule = "CC(=O)C(C)C"
label = -1

[[record]]
molecule = "C=C(C)C(=O)OCCCCCCCCCCCC"
label = -1

[[record]]
molecule = "CCCCCCCC(=O)OCC(COC(=O)CCCCCCC)OC(=O)CCCCCCC"
label = -1

[[record]]
molecule = "C[Si]1(C)O[Si](C)(C)O[Si](C)(C)O[Si](C)(C)O[Si](C)(C)O1"
label = -1

[[record]]
molecule = "CCC(C)N (stereo not given)"
label = -1

[[record]]
molecule = "CCOC(=O)/C=C\\C(=O)OCC"
label = -1

[[record]]
molecule = "CCCC=C(C=O)CC"
label = -1

[[record]]
molecule = "CCCCC1CCC(=O)O1 (stereo not given)"
label = -1

[[record]]
molecule = "C=C1C[C@H]2[C@@H]3C=C(C)C4=CC(=O)CC[C@]4(C)[C@H]3CC[C@]2(C)[C@@]1(OC(C)=O)C(C)=O"
label = -1

[[record]]
molecule = "CCC(C)c1ccccc1 (stereo not given)"
label = -1

[[record]]
molecule = "c1ccc2sc(SSN3CCOCC3)nc2c1"
label = -1

[[record]]
molecule = "O=C(C=Cc1ccccc1)OCCc1ccccc1"
label = -1

[[record]]
molecule = "COc1ccc(C(=O)/C(Br)=C\\C(=O)O)cc1"
label = -1

[[record]]
molecule = "CCCCCCCO"
label = -1

[[record]]
molecule = "CCOC(=O)c1ccccc1C"
label = -1

[[record]]
molecule = "CCOC(=O)[C@H](O)[C@@H](O)C(=O)OCC"
label = -1

[[record]]
molecule = "CCNc1nc(NC(C)(C)C)nc(OC)n1"
label = -1

[[record]]
molecule = "CCC1(C)C(=O)N(Cl)C(=O)N1Cl (stereo not given)"
label = -1

[[record]]
molecule = "COc1ccc(C(=O)c2ccccc2)c(O)c1"
label = -1

[[record]]
molecule = "C[Si](C)(C)N[Si](C)(C)C"
label = -1

[[record]]
molecule = "CC1=NN(c2ccc(S(=O)(=O)O)cc2)C(=O)C1N=Nc1ccccc1 (stereo not given)"
label = -1

[[record]]
molecule = "CCCCCCOc1ccc(N)cc1"
label = -1

[[record]]
molecule = "CC1=CP(=O)(c2ccccc2)CC1 (stereo not given)"
label = -1

[[record]]
molecule = "CCCC(CC)c1ccccc1 (stereo not given)"
label = -1

[[record]]
molecule = "C1CCSC1"
label = -1

[[record]]
molecule = "CCCCNS(=O)(=O)c1ccccc1"
label = -1

[[record]]
molecule = "CCCC1CCCC(=O)O1 (stereo not given)"
label = -1

[[record]]
molecule = "C=Cc1cccc(C)c1"
label = -1

[[record]]
molecule = "COc1ccc(-c2coc3cc(O)cc(O)c3c2=O)cc1"
label = -1

[[record]]
molecule = "Cc1ccc2c(c1)CCCN2"
label = -1

[[record]]
molecule = "CC1OC(=O)C(C)OC1=O (stereo not given)"
label = -1

[[record]]
molecule = "CC1C(C)(C)C2=C(C(=O)CCC2)C1(C)C (stereo not given)"
label = -1

[[record]]
molecule = "[Cl][Eu]([Cl])[Cl]"
label = -1

[[record]]
molecule = "O=C(OCCc1ccccc1)c1ccccc1"
label = -1

[[record]]
molecule = "COC(C=C(C)CCC=C(C)C)OC"
label = -1

[[record]]
molecule = "CC(=O)OC(C)c1ccccc1 (stereo not given)"
label = -1

[[record]]
molecule = "CCCCCCCCCCCCC"
label = -1

[[record]]
molecule = "C=CCCCCCCCCO"
label = -1

[[record]]
molecule = "O=C(O)CCC(=O)O"
label = -1

[[record]]
molecule = "CCCCCCO"
label = -1

[[record]]
molecule = "O=S(=O)(O)c1ccc(Nc2nc(Nc3ccc(C=Cc4ccc(Nc5nc(Nc6ccc(S(=O)(=O)O)cc6)nc(N(CCO)CCO)n5)cc4S(=O)(=O)O)c(S(=O)(=O)O)c3)nc(N(CCO)CCO)n2)cc1"
label = -1

[[record]]
molecule = "CCCC(C)C(=O)OCC (stereo not given)"
label = -1

[[record]]
molecule = "CC(=O)/C=C/C1C(C)=CCCC1(C)C (stereo not given)"
label = -1

[[record]]
molecule = "C=CC(=O)O[C@H]1C[C@@H]2CC[C@@]1(C)C2(C)C"
label = -1

[[record]]
molecule = "C=CCCCCCCCCC=O"
label = -1

[[record]]
molecule = "Oc1ccccc1Cc1ccccc1O"
label = -1

[[record]]
molecule = "O=C1c2ccccc2C(=O)c2cc(S(=O)(=O)O)ccc21"
label = -1

[[record]]
molecule = "CC(C)CCCCCOC(=O)CS"
label = -1

[[record]]
molecule = "CCCCOC(=O)CCC(C)=O"
label = -1

[[record]]
molecule = "N#Cc1ccc(C2CCCc3cncn32)cc1 (stereo not given)"
label = -1

[[record]]
molecule = "CCCCCCCCCCCC(=O)OCC"
label = -1

